Taken from ChEMBL document CHEMBL1149137.

Here's a batch of compounds along with measured Ki for Alpha-1D adrenergic receptor (Homo sapiens) (UniProt P25100).
// units = nM; emit number, no label

Worked examples follow.
COc1ccccc1N1CCN(CCN2C(=O)CC3(CCNCC3)CC2=O)CC1
71.7
O=C1CC2(CCCC2)CC(=O)N1CCN1CCN(c2ccccc2Cl)CC1
0.83
O=C1CC2(CCCC2)CCN1CCN1CCN(c2cc(Cl)ccc2Cl)CC1
0.11
O=C1CC2(CCCC2)CC(=O)N1CCN1CCN(c2c(Cl)cccc2Cl)CC1
29.9
O=C1CC2(CCCC2)CC(=O)N1CCN1CCN(c2ccccc2C(F)(F)F)CC1
5.25

Field request: Ki | item: "O=C1CC2(CCCC2)CC(=O)N1CCN1CCN(c2cccc(C(F)(F)F)c2)CC1"
153

Moving on to the next compound: "Cc1ccc(Cl)cc1N1CCN(CCN2C(=O)CC3(CCCC3)CC2=O)CC1"
0.37

Repeat with "Cc1ccc(C)c(N2CCN(CCN3C(=O)CC4(CCCC4)CC3=O)CC2)c1"
10.1

Here is the next compound: "O=C1C=CC(=O)N1CCN1CCN(c2cc(Cl)ccc2Cl)CC1"
126

Now the same for "N#Cc1ccc(Cl)cc1N1CCN(CCN2C(=O)CC3(CCCC3)CC2=O)CC1"
0.2

And what about the compound "O=C1CC2(CCCC2)CC(=O)N1CCN1CCN(c2ccccc2)CC1" ?
4.32

Next compound up: "COc1ccccc1N1CCN(CCN2C(=O)CC3(CCN(C(C)=O)CC3)CC2=O)CC1"
429

How about this compound: "O=C1CC2(CCCC2)CC(=O)N1CCN1CCN(c2cc(C(F)(F)F)ccc2Cl)CC1"
39.1

And then "O=C1CC2(CCCC2)CC(=O)N1CCN1CCN(c2ccc(Cl)cc2Cl)CC1" , what is it?
3.89

Same question for "O=C1CC2(CCCC2)CC(=O)N1CCN1CCN(c2cccc(Cl)c2)CC1" please.
2.02

Let us now turn to "O=C1CC2(CCCC2)CC(=O)N1CCN1CCN(c2cc([N+](=O)[O-])ccc2F)CC1"
46.3

Check "CN(CCCN(C)c1cc(Cl)ccc1Cl)CCN1C(=O)CC2(CCCC2)CC1=O" too.
110

What about this compound? "O=C1CC2(CCCCC2)CC(=O)N1CCN1CCN(c2ccccc2Cl)CC1"
2.88

----------
Below are pKi values recorded for Alpha-1D adrenergic receptor (Homo sapiens).
Bear in mind: pKi is minus log10 of a mol/L concentration; give just that figure.

Before answering, review these 5 worked examples.
O=C1CC2(CCCC2)CC(=O)N1CCNCCOc1cc(Cl)ccc1Cl
6.68
COc1ccc(N2CCN(CCN3C(=O)CC4(CCCC4)CC3=O)CC2)cc1
7.42
COc1ccccc1N1CCN(CCN2C=CC3(CCCC3)CC2=O)CC1
8.50
O=C1CC2(CCCC2)CC(=O)N1CCCN1CCN(c2cc(Cl)ccc2Cl)CC1
8.76
O=C1CC2(CCCC2)C(=O)N1CCN1CCN(c2cc(Cl)ccc2Cl)CC1
8.51

For the compound "O=C1CCC(=O)N1CCN1CCN(c2cc(Cl)ccc2Cl)CC1" , what pKi is on record?
8.11

Please give the result for "O=C1CC2(CCCC2)CC(=O)N1CCN1CCN(c2cc(I)ccc2Cl)CC1" too.
7.82

Moving on to the next compound: "Clc1ccccc1N1CCN(CCN2CCC3(CCCC3)CC2)CC1"
8.06

Queued: "O=C1CC2(CCCC2)CC(=O)N1CCN1CCN(c2cc(C(F)(F)F)ccc2F)CC1"
8.12

Again, but for "O=C1CC2(CCCC2)CC(=O)N1CCN1CCN(c2cc([N+](=O)[O-])ccc2Cl)CC1"
7.74

And then "Cc1ccccc1N1CCN(CCN2C(=O)CC3(CCCC3)CC2=O)CC1" , what is it?
8.67

Next record, please: "O=C1CC2(CCCC2)CC(=O)N1CCN1CCN(c2ccc(Cl)c(Cl)c2)CC1"
8.27
